Hello, the source for this data is PubChem BioAssay (NCI), in case you need it.

Field: TGI. Provide a value for each of the molecules that follow.
system: SNB-19 CNS; experiment: NCI tumour cell line growth inhibition, 48 h

SNB-19 CNS TGI of "O=C1COc2cc(NC(=S)Nc3ccccc3)ccc2N1" is > 100 µM

SNB-19 CNS TGI of "CCOP(=Nc1ccc(N(C)C)cc1)(OCC)OCC" is > 100 µM

SNB-19 CNS TGI of "Cc1ccc(S(=O)(=O)OC2CC=CC2)cc1" is > 100 µM

SNB-19 CNS TGI of C=C(CCOC)CCC1CCCCC(CN(C)C)C1=O (stereo unspecified) is > 100 µM

SNB-19 CNS TGI of C#CC1(O)C(COP(=O)(O)OCC(COP(=O)(O)OCC2OC(n3cc(F)c(=O)[nH]c3=O)CC2O)OCCCCCCCCCCCCCCCCCC)OC(n2ccc(N)nc2=O)C1O (stereo unspecified) is > 57.2 µM

SNB-19 CNS TGI of "CC1(C)OCN(c2ccc(N3CCOCC3)cc2)Cn2c1nc1ccccc12" is > 100 µM

SNB-19 CNS TGI of NC(CSC(c1ccccc1)(c1ccccc1)c1ccccc1)C(=O)NCC(=O)O (stereo unspecified) is > 100 µM

SNB-19 CNS TGI of "COc1ccc2nc3cc(Cl)ccc3c(Sc3ccc([N+](=O)[O-])cc3C)c2c1" is > 100 µM

SNB-19 CNS TGI of "O=C(NC(=O)c1c(F)cccc1F)Nc1cccc(Oc2ncc(Cl)cn2)c1" is > 86.3 µM

SNB-19 CNS TGI of "CCOC(=O)/C=C(\C(=O)OCC)n1cc(C)c(=O)n(Cc2cn(CCCCOC(C)=O)nn2)c1=O" is 47.3 µM

SNB-19 CNS TGI of Cc1cc(N(CC(C)Br)CC(C)Br)ccc1N=Nc1ccccc1C(=O)O (stereo unspecified) is 23.5 µM
